assay: Cell viability: resazurin assay in Hep2 cells; type: cell-based; details: human, 5 days incubation
reportedProperty: CC50 at 5 days

Some compounds with recorded CC50 at 5 days:
[[record]]
smilesrepr = "O=C(Nc1ccc(C(=O)N2CCc3cc(-c4nc5ccccc5[nH]4)sc3-c3ccccc32)cc1)c1cccnc1N1CC2(CCOCC2)C1"
reportedproperty = "CC50 at 5 days"
result = "> 15 µM"

[[record]]
smilesrepr = "O=C(Nc1ccc(C(=O)N2CCc3cc(-c4nc5cccc(C(F)(F)F)c5[nH]4)sc3-c3ccccc32)cc1)c1cccnc1N1CC2(CCOCC2)C1"
reportedproperty = "CC50 at 5 days"
result = "> 13.6 µM"

[[record]]
smilesrepr = "Cc1cc(C(=O)Nc2ccc(C(=O)N3CCc4cc(-c5nc6cccc(Cl)c6[nH]5)sc4-c4ccccc43)cc2)c(N2CC3(CCOCC3)C2)nc1C"
reportedproperty = "CC50 at 5 days"
result = "> 13.7 µM"

[[record]]
smilesrepr = "Cc1cnc(N2CC3(CCOCC3)C2)c(C(=O)Nc2ccc(C(=O)N3CCc4cc(-c5nc6cccc(C#N)c6[nH]5)sc4-c4ccccc43)cc2)c1"
reportedproperty = "CC50 at 5 days"
result = "> 14.2 µM"

[[record]]
smilesrepr = "Cc1cc(C(=O)Nc2ccc(C(=O)N3CCc4cc(-c5nc6cccc(C)c6[nH]5)sc4-c4ccccc43)cc2)c(N2CC3(CCOCC3)C2)nc1C"
reportedproperty = "CC50 at 5 days"
result = "> 14.1 µM"


Problem: I have this compound here, `Cc1cnc(N2CC3(CCOCC3)C2)c(C(=O)Nc2ccc(C(=O)N3CCc4cc(-c5nc6cccc(Cl)c6[nH]5)sc4-c4ccccc43)cc2)c1` , and I need its recorded CC50 at 5 days.
Solution: > 14 µM

----------
assay: Cell viability: resazurin assay in Hep2 cells; assay type: cell-based; settings: human, 5 days incubation
reportedProperty: CC50 at 5 days

[[record]]
smilesrepr = "Cc1cnc(N2CC3(CCOCC3)C2)c(C(=O)Nc2ccc(C(=O)N3CCc4cc(-c5nc6cc(F)cc(F)c6[nH]5)sc4-c4ccccc43)cc2)c1"
result = "> 14 µM"

[[record]]
smilesrepr = "CCc1cccc2nc(-c3cc4c(s3)-c3ccccc3N(C(=O)c3ccc(NC(=O)c5cc(C)cnc5N5CC6(CCOCC6)C5)cc3)CC4)[nH]c12"
result = "> 14.1 µM"

[[record]]
smilesrepr = "Cc1cnc(N2CC3(CCOCC3)C2)c(C(=O)Nc2ccc(C(=O)N3CCc4cc(-c5nc6cccc(F)c6[nH]5)sc4-c4ccccc43)cc2)c1"
result = "> 14.3 µM"


Problem: Given the compound `Cc1cnc(N2CC3(CCOCC3)C2)c(C(=O)Nc2ccc(C(=O)N3CCc4cc(-c5nc6cccc(C)c6[nH]5)sc4-c4ccccc43)c(F)c2)c1` , what is its reported CC50 at 5 days?
Solution: > 14 µM

Problem: # get_value(readout='CC50 at 5 days', item= `Cc1cnc(N2CC3(CCOCC3)C2)c(C(=O)Nc2ccc(C(=O)N3CCc4cc(-c5nc6cccc(C)c6[nH]5)sc4-c4ccccc43)cc2)c1` )
Solution: > 14.4 µM

Problem: Need CC50 at 5 days of `O=C(Nc1ccc(C(=O)N2CCc3cc(-c4nc5cccc(F)c5[nH]4)sc3-c3ccccc32)cc1)c1cccnc1N1CC2(CCOCC2)C1` , thanks.
Solution: > 14.6 µM

----------
compounds and their reported inhibition at 1 µg/mL
system: RSV B Washington strain; assay: RSV B-induced CPE in Hep2 cells; type: cell-based; settings: human respiratory syncytial virus, HEp-2; Hep2 cells, at 1 μg/mL; read-out: RSV B CPE % Inhibition
Response body: numeric value in %, unit text excluded.

[[record]]
smilesrepr = "O=C(Nc1ccc(C(=O)N2CCc3cc(-c4nc5cccc(F)c5[nH]4)sc3-c3ccccc32)cc1)c1cccnc1N1CC2(CCOCC2)C1"
reportedproperty = "inhibition at 1 µg/mL"
unitsofmeasure = "%"
measurednumber = 100


Problem: Any idea what its inhibition at 1 µg/mL is? The compound is `Cc1cnc(N2CC3(CCOCC3)C2)c(C(=O)Nc2ccc(C(=O)N3CCc4cc(-c5nc6ccccc6[nH]5)sc4-c4ccccc43)c(F)c2)c1`
Solution: 100

Problem: I would be grateful if you could share the reported inhibition at 1 µg/mL for `Cc1cnc(N2CC3(CCOCC3)C2)c(C(=O)Nc2ccc(C(=O)N3CCc4cc(-c5nc6cccc(F)c6[nH]5)sc4-c4ccccc43)cc2)c1` .
Solution: 100

Problem: If you can, please state the reported inhibition at 1 µg/mL value of `Cc1cnc(N2CC3(CCOCC3)C2)c(C(=O)Nc2ccc(C(=O)N3CCc4cc(-c5nc6cccc(C#N)c6[nH]5)sc4-c4ccccc43)cc2)c1` .
Solution: 100

Problem: Consider the compound shown here: `Cc1cnc(N2CC3(CCOCC3)C2)c(C(=O)Nc2ccc(C(=O)N3CCc4cc(-c5nc6cccc(C(F)(F)F)c6[nH]5)sc4-c4ccccc43)cc2)c1` What is its recorded inhibition at 1 µg/mL?
Solution: 100

Problem: Recorded inhibition at 1 µg/mL of `COc1ccc(C(=O)Nc2ccc(C(=O)N3CCc4cc(-c5nc6ccccc6[nH]5)sc4-c4ccccc43)cc2)c(N2CC3(CCOCC3)C2)n1` , please.
Solution: 100

----------
experiment: Cell viability: resazurin assay in Hep2 cells; assay type: cell-based; conditions: human, 5 days incubation
Consider the following molecules and their measured CC50 at 5 days readings.

Would you please look over these solved cases?
[[record]]
smilesrepr = "Cc1cccc2nc(-c3cc4c(s3)-c3ccccc3N(C(=O)c3ccc(NC(=O)c5cccnc5N5CC6(CCOCC6)C5)cc3)CC4)[nH]c12"
reportedproperty = "CC50 at 5 days"
result = "> 14.7 µM"

[[record]]
smilesrepr = "Cc1ccc(C(=O)Nc2ccc(C(=O)N3CCc4cc(-c5nc6ccccc6[nH]5)sc4-c4ccccc43)cc2)c(N2CC3(CCOCC3)C2)n1"
reportedproperty = "CC50 at 5 days"
result = "> 14.7 µM"


Problem: What does the record list as CC50 at 5 days for `N#Cc1cccc2nc(-c3cc4c(s3)-c3ccccc3N(C(=O)c3ccc(NC(=O)c5cccnc5N5CC6(CCOCC6)C5)cc3)CC4)[nH]c12` ?
Solution: > 14.5 µM

----------
Listing of recorded inhibition at 1 µg/mL by entry.
system: RSV B Washington strain; experiment: RSV B-induced CPE in Hep2 cells; type: cell-based; conditions: human respiratory syncytial virus, HEp-2; Hep2 cells, at 1 μg/mL; read-out: RSV B CPE % Inhibition
The answer is to be given in %; state only the numeric part.

Example results:
[[record]]
compound = "Cc1cnc(N2CC3(CCOCC3)C2)c(C(=O)Nc2ccc(C(=O)N3CCc4cc(-c5nc6cccc(C)c6[nH]5)sc4-c4ccccc43)cc2)c1 [Example 16]"
measuredtarget = "RSV B Washington strain"
unitsofmeasure = "%"
measurednumber = 99

[[record]]
compound = "Cc1cc(C(=O)Nc2ccc(C(=O)N3CCc4cc(-c5nc6cccc(C#N)c6[nH]5)sc4-c4ccccc43)cc2)c(N2CC3(CCOCC3)C2)nc1C [Example 25]"
measuredtarget = "RSV B Washington strain"
unitsofmeasure = "%"
measurednumber = 100


Problem: Could you share what inhibition at 1 µg/mL was measured for Cc1ccc2nc(-c3cc4c(s3)-c3ccccc3N(C(=O)c3ccc(NC(=O)c5cccnc5N5CC6(CCOCC6)C5)cc3)CC4)[nH]c2c1 [Example 11] , tested on RSV B Washington strain?
Solution: 100

Problem: // lookup inhibition at 1 µg/mL | system=RSV B Washington strain | key= Cc1cnc(N2CC3(CCOCC3)C2)c(C(=O)Nc2ccc(C(=O)N3CCc4cc(-c5nc6cccc(C)c6[nH]5)sc4-c4ccccc43)c(F)c2)c1 [Example 27]
Solution: 80

Problem: Identify the measured inhibition at 1 µg/mL of O=C(Nc1ccc(C(=O)N2CCc3cc(-c4nc5cccc(Cl)c5[nH]4)sc3-c3ccccc32)cc1)c1cccnc1N1CC2(CCOCC2)C1 [Example 9] for RSV B Washington strain.
Solution: 100

Problem: Request: inhibition at 1 µg/mL, test system RSV B Washington strain, entry Cc1cc(C(=O)Nc2ccc(C(=O)N3CCc4cc(-c5nc6cccc(Cl)c6[nH]5)sc4-c4ccccc43)cc2)c(N2CC3(CCOCC3)C2)nc1C [Example 23]
Solution: 100

Problem: API: value(readout=inhibition at 1 µg/mL, system=RSV B Washington strain) for record C#Cc1cnc(N2CC3(CCOCC3)C2)c(C(=O)Nc2ccc(C(=O)N3CCc4cc(-c5nc6ccccc6[nH]5)sc4-c4ccccc43)cc2)c1 [Example 5]
Solution: 92

Problem: Lookup: inhibition at 1 µg/mL / RSV B Washington strain / N#Cc1cccc2nc(-c3cc4c(s3)-c3ccccc3N(C(=O)c3ccc(NC(=O)c5cccnc5N5CC6(CCOCC6)C5)cc3)CC4)[nH]c12 [Example 12]
Solution: 100
